Collected IC50 for Collagenase 3 (Homo sapiens) across several studies; molecules listed below.

### Prompt Look up IC50 with Collagenase 3 (Homo sapiens) for this molecule: `CCOC(=O)c1c[nH]c2c(C(=O)NCc3ccc4c(c3)NC(=O)CO4)ncnc12`
### Response 0.101 to 20 µM

### Prompt Item Cc1cc(CNC(=O)c2cc(C(=O)NC3CCc4cc(-c5nnn[nH]5)ccc43)ncn2)ccc1F (centres unmarked) with Collagenase 3 (Homo sapiens) - IC50?
### Response > 0.005 µM

### Prompt Enter reported IC50 observed with Collagenase 3 (Homo sapiens) for Cc1cc(COc2ccc(S(=O)(=O)N[C@@H]3CCCC[C@H]3C(=O)NO)cc2)c2ccccc2n1 (relative stereo)
### Response > 16.7 µM

### Prompt IC50 of N#CC1CCc2sc3nc(C(=O)NCc4ccc5c(c4)NC(=O)CO5)[nH]c(=O)c3c21 (centres unmarked) on Collagenase 3 (Homo sapiens)?
### Response < 0.1 µM

### Prompt Under Collagenase 3 (Homo sapiens): IC50 value of `Cc1c(C(=O)O)sc2nc(C(=O)NCc3ccc4c(c3)NC(=O)CO4)[nH]c(=O)c12` ?
### Response 0.1 to 20 µM

###

Compiled record: IC50 values for UniProt:P45452 across several sources.

### Prompt Please provide the recorded IC50 for `O=C1COc2ccc(CNC(=O)c3nc4sc5c(c4c(=O)[nH]3)CCCS5)cc2N1` , tested on UniProt:P45452.
### Response < 0.1 µM

### Prompt Requested read-out IC50, target or system UniProt:P45452, entry CC1SCc2sc3nc(C(=O)NCc4ccc5c(c4)CN(c4c(N)c(=O)c4=O)CC5)[nH]c(=O)c3c21 (stereo not shown)
### Response < 0.1 µM

### Prompt Any idea what IC50 came out for `N#CCc1csc2nc(C(=O)NCc3ccc4c(c3)NC(=O)CO4)[nH]c(=O)c12` on UniProt:P45452?
### Response < 0.1 µM

### Prompt Form: Entry = `O=C(NO)[C@H]1CN(C(=O)c2cccnc2)CCN1S(=O)(=O)c1cc(F)c(Oc2ccc(Cl)cc2)c(F)c1` | System = UniProt:P45452 | IC50 = ____
### Response < 0.05 µM

###

Literature survey of log10(IC50) (system: UniProtKB P45452).
Annotation: log10 of IC50, µM basis.

### Prompt Record lookup: for UniProtKB P45452, what log10(IC50) belongs to O=C(O)[C@@H]1[C@@H](Cn2nnc3ccc(C(F)(F)F)cc3c2=O)CC[C@H]1C(=O)c1ccc(OCC2CCCCC2)cc1 (single isomer, unassigned) ?
### Response -0.96

### Prompt Value wanted: log10(IC50) (UniProtKB P45452) of entry COc1ccc(C2SC(CC(=O)NC(C)C)C(=O)N2C(Cc2ccccc2)C(=O)NO)cc1 (stereo not shown)
### Response -1.72

### Prompt Which measured log10(IC50) belongs to O=C(O)[C@H]1[C@H](Cn2nnc3ccc(C(F)(F)F)cc3c2=O)CC[C@@H]1C(=O)c1ccc(OCc2ccc(F)cc2)cc1 (racemic) , tested on UniProtKB P45452?
### Response -1.41

### Prompt Requested read-out log10(IC50), target or system UniProtKB P45452, entry `Cn1nc(C(=O)NCc2ccc(C(=O)O)cc2)cc1-c1ccc2[nH]c(-c3ccc(F)nc3)cc2c1`
### Response -1.32

### Prompt Find log10(IC50) (UniProtKB P45452) for the entry `CNC(=O)[C@@H](NC(=O)c1ccc(-c2ccc(NC(=O)c3cn4cccc(C)c4n3)cc2)o1)C1CCCCC1`
### Response -1.00

### Prompt Kindly state the measured log10(IC50) obtained for `CN1CCC(C(=O)NO)(S(=O)(=O)c2ccc(OCc3ccc(Cl)cc3)cc2)CC1` with UniProtKB P45452.
### Response -2.51

### Prompt Field: log10(IC50) (UniProtKB P45452). Entry: O=C(CC(CCn1nnc2ccccc2c1=O)C(=O)O)c1noc2cc(OCC3CCCCC3)ccc12 (racemic)
### Response 0.45

### Prompt Please tell me: log10(IC50) of `CCCCOc1ccc(S(=O)(=O)C2(C(=O)NO)CCN(CCCC)CC2)cc1` , system UniProtKB P45452?
### Response -2.62

### Prompt Test system UniProtKB P45452; read-out log10(IC50); what value for COc1cccc(COc2ccc(C(=O)[C@@H]3CC[C@H](Cn4nnc5ccc(C)cc5c4=O)[C@H]3C(=O)O)cc2)c1 (single isomer, unassigned) ?
### Response -0.82
